Kindly supply the reported TGI values for the records listed here.
Test system: MCF7 breast
Experiment: NCI tumour cell line growth inhibition, 48 h
Where a SMILES comes first, the peptide text is derived from it. The star is where a group is joined. Trt = c1ccc(C(c2ccccc2)(c2ccccc2)*)cc1; Cbz = O=C(OCc1ccccc1)*

Request: Quick one: TGI for CSc1ncnc2c1cnn2Cc1cn(COCCO)nn1 ?
Result: > 100 µM

Request: Quick one: TGI for COC(=O)C(CO)NC(=O)C(CSC(c1ccccc1)(c1ccccc1)c1ccccc1)NC(=O)OCc1ccccc1 (centres undefined) (Cbz-Cys(Trt)-Ser-OMe; configuration not given here) ?
Result: > 59.1 µM

Request: Quick one: TGI for C[C@@]1([C@H](OC(=O)c2ccccc2)C(N)=O)CO1 ?
Result: > 100 µM

Request: Quick one: TGI for O=C(CS(=O)(=O)c1nc2ccccc2nc1-c1ccccc1)Nc1ccc(F)cc1 ?
Result: > 100 µM

Where do these numbers come from? They come from PubChem BioAssay (NCI).
